- assayComment: Catalytic activity of GPx mimetics: reduction of hydrogen peroxide with benzyl thiol
Flag rule - t1/2 (h), time required to oxidize half of the thiol to its disulfide less than 20 h flags 1; the remaining entries get 0.

Ask: hey, is t1/2 (h), time required to oxidize half of the thiol to its disulfide for O=[Se]1OCc2ccccc21 (stereo not shown) [Compound 19, Benzo-1,2-oxaselenolane Se-Oxide] lower than 20 h or not?
Reply: 1

Ask: hey, is t1/2 (h), time required to oxidize half of the thiol to its disulfide for O=C1O[Se](=O)c2ccccc21 (stereo not shown) [Compound 22, Benzo-3-oxo-1,2-Oxaselenolane Se-Oxide] lower than 20 h or not?
Reply: 0

Ask: hey, is t1/2 (h), time required to oxidize half of the thiol to its disulfide for C1CO[Se]2(C1)CCCO2 [Compound 16, reference compound] lower than 20 h or not?
Reply: 1

Ask: hey, is t1/2 (h), time required to oxidize half of the thiol to its disulfide for O=C1O[Se]2(OC(=O)c3ccccc32)c2ccccc21 [Compound 25, Spirodioxyselenurane, reference compound] lower than 20 h or not?
Reply: 0

Ask: hey, is t1/2 (h), time required to oxidize half of the thiol to its disulfide for O=[Se]1OCc2cc(F)ccc21 (stereo not shown) [Compound 93, 5-fluorobenzo-1,2-oxaselenolane Se-oxide] lower than 20 h or not?
Reply: 0

Ask: hey, is t1/2 (h), time required to oxidize half of the thiol to its disulfide for O=[Se]1CCCO1 (stereo not shown) [Compound 14, reference compound] lower than 20 h or not?
Reply: 1

Ask: hey, is t1/2 (h), time required to oxidize half of the thiol to its disulfide for c1ccc2c(c1)CO[Se]21OCc2ccccc21 lower than 20 h or not?
Reply: 1

Ask: hey, is t1/2 (h), time required to oxidize half of the thiol to its disulfide for COc1ccc2c(c1)CO[Se]2=O (stereo not shown) lower than 20 h or not?
Reply: 0

Ask: hey, is t1/2 (h), time required to oxidize half of the thiol to its disulfide for Fc1ccc2c(c1)CO[Se]21OCc2cc(F)ccc21 lower than 20 h or not?
Reply: 1

Ask: hey, is t1/2 (h), time required to oxidize half of the thiol to its disulfide for COc1ccc2c(c1)CO[Se]21OCc2cc(OC)ccc21 lower than 20 h or not?
Reply: 1
